System: Fibroblast
ASSAY: Multiplex assay against human fibroblast
Type: toxicity, cell-based
PROTOCOL CONDITIONS: 48 h, 10 µM, compound concentration 10 uM, replicate 1
Categories are defined by ranges of Population Healthy Nuclei (%), namely LOW = under 60%, MID = from 60% up to 70%, HIGH = 70% and over

COMPOUND: CN1C[C@H](C(=O)N[C@]2(C)O[C@@]3(O)[C@@H]4CCCN4C(=O)[C@H](Cc4ccccc4)N3C2=O)C[C@@H]2c3cccc4[nH]cc(c34)C[C@H]21.CS(=O)(=O)O [DIHYDROERGOTAMINE MESYLATE]
ASSIGNED CATEGORY: MID
//
COMPOUND: Cc1cc(-c2ccc3c(c2)CC[C@H]3N2CC3(CCN(C(=O)Cc4cn5cc(C)sc5n4)CC3)C2)ncn1
ASSIGNED CATEGORY: MID
//
COMPOUND: C[C@@H]1CC(=O)Nc2cccc(-c3ccc4c(c3)c(-c3cnn(C)c3)nn4C)c2N1
ASSIGNED CATEGORY: HIGH
//
COMPOUND: CC(F)(F)CN1CCOc2c(nn(-c3ccccc3Cl)c2-c2ccc(Cl)cc2)C1=O
ASSIGNED CATEGORY: LOW
//
COMPOUND: Nc1nc(CC(=O)Nc2ccc(CCNC[C@H](O)c3ccccc3)cc2)cs1
ASSIGNED CATEGORY: HIGH
//
COMPOUND: CC(C)C[C@H](CO)Nc1nc(S[C@@H](C)c2ccccc2)nc2nc(N)sc12
ASSIGNED CATEGORY: MID
//
COMPOUND: Cc1ccc(OCC(O)C(C)NC(C)C)c2c1CCC2.Cl (configuration not stated)
ASSIGNED CATEGORY: LOW
//
COMPOUND: Cc1cc(=O)n(C)c2cc(N3C(=O)CC[C@H](NS(=O)(=O)CC(C)C)[C@H]3c3ccc(Cl)cc3)ccc12
ASSIGNED CATEGORY: LOW
//
COMPOUND: C[C@H](NC(=O)CNC(=O)c1cccc(Cl)c1)c1ccccc1
ASSIGNED CATEGORY: LOW
//
COMPOUND: COc1cc(C(=O)N2CC[C@@H](O)[C@@H](N)C2)cc2nc(-c3cc4ccccc4n3CC3CC3)n(C)c12.Cl
ASSIGNED CATEGORY: MID
//
COMPOUND: CSc1nc(NC2CCCC2)c([N+](=O)[O-])c(NC2CCCC2)n1
ASSIGNED CATEGORY: MID

----------
Test system: HEK-293T
ASSAY: Multiplex assay against HEK293T
Type: toxicity, cell-based
PROTOCOL CONDITIONS: human, 12 h, 10 µM, compound concentration 10 uM, replicate 2

COMPOUND: COc1ccc2[nH]c(I)c(CCNC(C)=O)c2c1
Population Fragmented Nuclei (%): 8

COMPOUND: O=C(NCCNCC(O)COc1ccc(O)cc1)N1CCOCC1.O=C(NCCNCC(O)COc1ccc(O)cc1)N1CCOCC1.O=C(O)/C=C/C(=O)O (stereo not drawn) [XAMOTEROL FUMARATE]
Population Fragmented Nuclei (%): 4

COMPOUND: COc1cc2nc(N3CCN(C(=O)c4ccco4)CC3)nc(N)c2cc1OC.Cl [PRAZOSIN HYDROCHLORIDE]
Population Fragmented Nuclei (%): 5

COMPOUND: CN(C)C(=O)Cn1cc(-c2ccc(-c3nnc4ccccn34)cc2)cn1
Population Fragmented Nuclei (%): 7

COMPOUND: CN(C)C/C=C/C(=O)Nc1ccc(C(=O)N2CCCC(Nc3ncc(Cl)c(-c4c[nH]c5ccccc45)n3)C2)cc1 (stereo not drawn)
Population Fragmented Nuclei (%): 7

COMPOUND: Cc1c(Cc2ccc3ccccc3n2)c2cc(F)ccc2n1CC(=O)O
Population Fragmented Nuclei (%): 6

COMPOUND: Nc1nc(CC(=O)Nc2ccc(CCNC[C@H](O)c3ccccc3)cc2)cs1
Population Fragmented Nuclei (%): 11

COMPOUND: O=C(Nc1cc(-c2ccccc2)nn1-c1ccccc1F)c1ccc([N+](=O)[O-])cc1
Population Fragmented Nuclei (%): 6
